Reported MIC values for the following compounds.
System: E. cloacae spp. cloacae ATCC 13047
assayOverview: MIC broth microdilution, E. cloacae
Format: cell-based, Enterobacter cloacae
experimentalConditions: Enterobacter cloacae, ATCC13047, read-out: MIC E. cloacae spp. cloacae ATCC #; broth microdilution, 18 h

These solved cases illustrate the format of a correct answer.
Cc1[nH]c(C(=O)Nc2nc3c(OCc4ccccc4)cc(C(=O)O)cc3s2)c(Cl)c1Cl [Compound 1b, reference compound]; > 64 µg/mL
Cc1[nH]c(C(=O)Nc2nc3ccc(C(=O)NCC(=O)N4CCN(c5cc6c(cc5F)c(=O)c(C(=O)O)cn6C5CC5)CC4)cc3s2)c(Cl)c1Cl; > 64 µg/mL

Q: Would you kindly share the measured MIC for Cc1[nH]c(C(=O)Nc2nc3ccc(C(=O)NCCOCCN4CCN(c5cc6c(cc5F)c(=O)c(C(=O)O)cn6C5CC5)CC4)cc3s2)c(Cl)c1Cl.Cl [Compound 11a] ?
Result: 64 µg/mL

Q: Would you kindly share the measured MIC for Cc1[nH]c(C(=O)Nc2nc3c(OCc4ccccc4)cc(C(=O)NCCOCCN4CCN(c5cc6c(cc5F)c(=O)c(C(=O)O)cn6C5CC5)CC4)cc3s2)c(Cl)c1Cl.Cl [Compound 11b] ?
Result: 16 µg/mL

Q: Would you kindly share the measured MIC for `Cc1[nH]c(C(=O)Nc2nc3c(OCc4ccccc4)cc(C(=O)N4CCN(c5cc6c(cc5F)c(=O)c(C(=O)O)cn6C5CC5)CC4)cc3s2)c(Cl)c1Cl` ?
Result: > 64 µg/mL

====

Test system: K. pneumoniae ATCC 10031
assayOverview: MIC broth microdilution, K. pneumoniae
Format: cell-based
experimentalConditions: Klebsiella pneumoniae, ATCC10031, read-out: MIC K. pneumoniae ATCC #; molar conversion in parentheses
Could you please mark condition met for values of MIC below 1 µM and condition not met for values at or above it?

Q: Is it true that MIC reported for `Cc1[nH]c(C(=O)Nc2nc3ccc(C(=O)N4CCN(c5cc6c(cc5F)c(=O)c(C(=O)O)cn6C5CC5)CC4)cc3s2)c(Cl)c1Cl` is less than 1 µM?
Result: condition met

Q: Is it true that MIC reported for Cc1[nH]c(C(=O)Nc2nc3c(OCc4ccccc4)cc(C(=O)O)cc3s2)c(Cl)c1Cl [Compound 1b, reference compound] is less than 1 µM?
Result: condition not met

Q: Is it true that MIC reported for Cc1[nH]c(C(=O)Nc2nc3c(OCc4ccccc4)cc(C(=O)NCCOCCN4CCN(c5cc6c(cc5F)c(=O)c(C(=O)O)cn6C5CC5)CC4)cc3s2)c(Cl)c1Cl.Cl [Compound 11b] is less than 1 µM?
Result: condition not met

Q: Is it true that MIC reported for Cc1[nH]c(C(=O)Nc2nc3ccc(C(=O)O)cc3s2)c(Cl)c1Cl [Compound 1a, reference compound] is less than 1 µM?
Result: condition not met

Q: Is it true that MIC reported for Cc1[nH]c(C(=O)Nc2nc3ccc(C(=O)NCCOCCN4CCN(c5cc6c(cc5F)c(=O)c(C(=O)O)cn6C5CC5)CC4)cc3s2)c(Cl)c1Cl.Cl [Compound 11a] is less than 1 µM?
Result: condition not met

====

Tested on: P. aeruginosa ATCC 27863
assayOverview: MIC broth microdilution, P. aeruginosa
Type: cell-based
experimentalConditions: Pseudomonas aeruginosa, ATCC27863, read-out: MIC P. aeruginosa ATCC #; molar conversion in parentheses; read-out: MIC P. aeruginosa ATCC 27863
metricName: MIC

These solved cases illustrate the format of a correct answer.
Cc1[nH]c(C(=O)Nc2nc3ccc(C(=O)NCCOCCN4CCN(c5cc6c(cc5F)c(=O)c(C(=O)O)cn6C5CC5)CC4)cc3s2)c(Cl)c1Cl.Cl [Compound 11a]; > 82.9 µM
Cc1[nH]c(C(=O)Nc2nc3ccc(C(=O)N4CCN(c5cc6c(cc5F)c(=O)c(C(=O)O)cn6C5CC5)CC4)cc3s2)c(Cl)c1Cl; 93.6 µM
Cc1[nH]c(C(=O)Nc2nc3ccc(C(=O)NCC(=O)N4CCN(c5cc6c(cc5F)c(=O)c(C(=O)O)cn6C5CC5)CC4)cc3s2)c(Cl)c1Cl; > 86.4 µM

Q: Would you kindly share the measured MIC for Cc1[nH]c(C(=O)Nc2nc3ccc(C(=O)O)cc3s2)c(Cl)c1Cl [Compound 1a, reference compound] ?
Result: 21.6 µM

Q: Would you kindly share the measured MIC for Cc1[nH]c(C(=O)Nc2nc3c(OCc4ccccc4)cc(C(=O)O)cc3s2)c(Cl)c1Cl [Compound 1b, reference compound] ?
Result: 4.2 µM

Q: Would you kindly share the measured MIC for `Cc1[nH]c(C(=O)Nc2nc3c(OCc4ccccc4)cc(C(=O)N4CCN(c5cc6c(cc5F)c(=O)c(C(=O)O)cn6C5CC5)CC4)cc3s2)c(Cl)c1Cl` ?
Result: > 81 µM

Q: Would you kindly share the measured MIC for Cc1[nH]c(C(=O)Nc2nc3c(OCc4ccccc4)cc(C(=O)NCCOCCN4CCN(c5cc6c(cc5F)c(=O)c(C(=O)O)cn6C5CC5)CC4)cc3s2)c(Cl)c1Cl.Cl [Compound 11b] ?
Result: > 72.9 µM

Q: Would you kindly share the measured MIC for `Cc1[nH]c(C(=O)Nc2nc3ccc(C(=O)NCCC(=O)N4CCN(c5cc6c(cc5F)c(=O)c(C(=O)O)cn6C5CC5)CC4)cc3s2)c(Cl)c1Cl` ?
Result: > 84.8 µM
